Target: Solute carrier family 2, facilitated glucose transporter member 1 (Homo sapiens)
Test: ST_JUDE_LEISH: Cytotoxicity at 2uM final concentration against transgenic Leishmania Mexicana promastigotes LmGLUT1 that are glucose transport deficient and complemented with the human glucose transporter GLUT1. Activity is measured by DNA content using SYBR green in vitro
Type: functional
# inhibition per record follows
Respond numerically; units are % and should not be typed.

> print(dat)
                                 molecule  meas.value
1  CCOC(=O)c1ccc(OCCCCCCOc2ccc(Br)cc2)cc1        1.32

Query string: Which inhibition is reported for this molecule? `CCn1ccc2c(N3CCCS3(=O)=O)cc(C(=O)N[C@@H](Cc3ccccc3)[C@H](O)CNC3CCCCC3)cc21`
Result string: -0.74

Query string: Which inhibition is reported for this molecule? CC1CN(C(=O)c2sc3ccccc3c2Cl)CC(C)O1 (centres undefined)
Result string: -2.33

Query string: Which inhibition is reported for this molecule? `CN(C)CCOc1cc(NC(=O)Nc2ccc(Cl)cc2C(F)(F)F)ccc1I`
Result string: 3.57

Query string: Which inhibition is reported for this molecule? `COc1cc(NC(=O)/C=C/c2cccc3ccoc23)ccc1OCCN(C(C)C)C(C)C`
Result string: 9.36
